# ASSAY_TARGET: CCK2 receptor (gastrin receptor)
# ASSAY_EXPLANATION: cell-based or functional assay
Numbered stars: 1 amine (or outer) side, 2 acyl side, 3 side chain; on linkers, the order of the positions; unused ones are H or OH. Side chains are listed from the residue outwards. Ends that are not written are not given here. * marks the point of attachment. C18 diacid = O=C(O)CCCCCCCCCCCCCCCCC(=O)*; γGlu = O=C(O)[C@H](CCC(=O)[*:2])N[*:1]; AEEA = NCCOCCOCC(=O)O
READOUT_NAME: Relative Receptor Potency

[
  {
    "BINDER": "QGPWLEEEEEAYGWLK([AEEA-AEEA-γGlu-C18 diacid])F-NH2 (ends and bridges not checked) [[Lys16(N-ε-#),Leu15] Gastrin-17]",
    "MEASURED": 0
  },
  {
    "BINDER": "{C18 diacid-γGlu-AEEA-AEEA}-QGPWLEEEEEAYGWLDF-NH2 (ends and bridges not checked) [N-α-#-[Leu15] Gastrin-17]",
    "MEASURED": 57
  }
]

[a] QGK([AEEA-AEEA-γGlu-C18 diacid])WLEEEEEAYGWLDF-NH2 (ends and bridges not checked) [[Lys3(N-ε-#),Leu15] Gastrin-17]
[b] QGPWLEEEEEAK([AEEA-AEEA-γGlu-C18 diacid])GWLDF-NH2 (ends and bridges not checked) [[Lys12(N-ε-#),Leu15] Gastrin-17]
[c] QGPWLEEEEEAYGK([AEEA-AEEA-γGlu-C18 diacid])LDF-NH2 (ends and bridges not checked) [[Lys14(N-ε-#),Leu15] Gastrin-17]
Enquiry: Task for the reader: rank each entry by its Relative Receptor Potency, from the minimum upward. Kindly provide the labels arranged according to the requested ordering.
Return: c, b, a
(c: 0, b: 6, a: 60)
